Sourced from patent US9994617B2

Target: human plasma kallikrein (hPK) (Homo sapiens)
Experiment: Enzyme inhibition assay, human plasma kallikrein
Numbered stars: 1 amine (or outer) side, 2 acyl side, 3 side chain; on linkers, the order of the positions; unused ones are H or OH. Bridge positions count the residues as written; N and C are the ends. Square brackets hold non-standard residues; d marks the D form. Peptide text beside a SMILES is read from it. NMeW = CN[C@@H](Cc1c[nH]c2ccccc12)C(=O)O; TBMB = c1c(C[*:1])cc(C[*:3])cc1C[*:2]
Listing of entries alongside the reported pKi.
Remember the convention: pKi equals -log10 of concentration in molar.

Completed entries (count: 4):
{"compound": "CC(C)C[C@@H]1NC(=O)[C@@H]2CSCc3cc(cc(c3)CSC[C@@H](C(=O)N[C@@H](C)C(N)=O)NC(=O)[C@H](CC(C)C)NC(=O)[C@H](CC(=O)O)NC(=O)[C@H]([C@@H](C)O)NC(=O)[C@H](Cc3c[nH]cn3)NC1=O)CSC[C@H](NC(=O)[C@H](C)N)C(=O)N[C@@H](CC(N)=O)C(=O)N[C@@H](Cc1c[nH]c3ccccc13)C(=O)N1CCC[C@H]1C(=O)N[C@@H](Cc1ccc(O)cc1)C(=O)N[C@@H](CCCNC(=N)N)C(=O)N2 [Peptide 06-157] (H-ACNWPYRCLHTDLCA-NH2; linker 2-8-14 via TBMB)", "system tested": "human plasma kallikrein (hPK) (Homo sapiens)", "reported value": 8.48}
{"compound": "CC(=O)N[C@H]1CSCc2cc3cc(c2)CSC[C@H](NC(=O)[C@H](CCCNC(=N)N)NC(=O)[C@H](C)NC(=O)[C@H](C)NC(=O)[C@H](C)NC(=O)[C@H](CO)NC1=O)C(=O)N[C@@H](CC(C)C)C(=O)N[C@@H](Cc1c[nH]cn1)C(=O)N[C@@H](CCC(N)=O)C(=O)N[C@@H](CC(=O)O)C(=O)N[C@@H](CC(C)C)C(=O)N[C@H](C(N)=O)CSC3 [Ac-(06-34-18) A2A3] (Ac-CSAAARCLHQDLC-NH2; linker 1-7-13 via TBMB)", "system tested": "human plasma kallikrein (hPK) (Homo sapiens)", "reported value": 4.73}
{"compound": "CC(C)[C@@H]1NC(=O)[C@H](CCCNC(=N)N)NC(=O)[C@@H]2CSCc3cc(cc(c3)CSC[C@@H](C(=O)N[C@@H](C)C(N)=O)NC(=O)[C@H](CC(N)=O)NC1=O)CSC[C@H](NC(=O)[C@H](C)N)C(=O)N[C@@H](Cc1ccccc1)C(=O)N[C@@H](CCCCN)C(=O)N[C@@H](CCC(N)=O)C(=O)N2 [Peptide 06-94] (H-ACFKQCRVNCA-NH2; linker 2-6-10 via TBMB)", "system tested": "human plasma kallikrein (hPK) (Homo sapiens)", "reported value": 9.15}
{"compound": "CC(=O)N[C@H]1CSCc2cc3cc(c2)CSC[C@H](NC(=O)[C@H](CCCNC(N)=O)NC(=O)[C@H](C)NC(=O)[C@@H]2CCCN2C(=O)[C@H](Cc2c[nH]c4ccccc24)NC(=O)[C@H](CO)NC1=O)C(=O)N[C@@H](CC(C)C)C(=O)N[C@@H](Cc1c[nH]cn1)C(=O)N[C@@H](CCC(N)=O)C(=O)N[C@@H](CC(=O)O)C(=O)N[C@@H](CC(C)C)C(=O)N[C@H](C(N)=O)CSC3", "system tested": "human plasma kallikrein (hPK) (Homo sapiens)", "reported value": 5.10}

Please look at the following compound next.
For CC(=O)N[C@H]1CSCc2cc3cc(c2)CSC[C@H](NC(=O)[C@H](CCCNC(=N)N)NC(=O)[C@H](C)NC(=O)[C@@H]2CCCN2C(=O)[C@H](Cc2c[nH]c4ccccc24)N(C)C(=O)[C@H](CO)NC1=O)C(=O)N[C@@H](CC(C)C)C(=O)N[C@@H](Cc1c[nH]cn1)C(=O)N[C@@H](CCC(N)=O)C(=O)N[C@@H](CC(=O)O)C(=O)N[C@@H](CC(C)C)C(=O)N[C@H](C(N)=O)CSC3 [Ac-(06-34-18) NMeTrp2] (Ac-CS[NMeW]PARCLHQDLC-NH2; linker 1-7-13 via TBMB) , write its pKi. 6.64
